Values compiled from patent US10196425B2.

Target: MC4R (Homo sapiens, UniProt P32245)
Sequence (P32245 whole entry): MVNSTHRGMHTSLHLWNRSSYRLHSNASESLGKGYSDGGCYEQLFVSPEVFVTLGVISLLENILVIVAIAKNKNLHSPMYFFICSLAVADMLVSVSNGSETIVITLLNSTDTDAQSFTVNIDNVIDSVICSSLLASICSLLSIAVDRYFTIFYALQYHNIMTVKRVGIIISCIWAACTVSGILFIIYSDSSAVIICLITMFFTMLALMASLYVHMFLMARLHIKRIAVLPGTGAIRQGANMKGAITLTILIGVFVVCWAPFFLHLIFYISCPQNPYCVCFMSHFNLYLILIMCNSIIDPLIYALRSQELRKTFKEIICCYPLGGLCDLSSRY
Assay: cAMP assay (β-galactosidase reporter, cAMP Hunter), MC4R
Assay type: cell-based
Details: agonist cAMP stimulation; read-out: cAMP Assay (EC-50) MC4R
Bridge positions count the residues as written; N and C are the ends. Square brackets hold non-standard residues; d marks the D form. Peptide text beside a SMILES is read from it. Pen = CC(C)(S)[C@H](N)C(=O)O; hCys = N[C@@H](CCS)C(=O)O
reported_property: EC50 (nM)

compound	EC50 / nM
CC(=O)N[C@@H](CCCNC(=N)N)C(=O)N[C@H]1CSSC[C@@H](C(N)=O)NC(=O)[C@H](Cc2c[nH]c3ccccc23)NC(=O)[C@H](CCCNC(=N)N)NC(=O)[C@@H](Cc2ccccc2)NC(=O)[C@@H]2CCCN2C(=O)[C@@H](C)NC1=O [Compound 13] (Ac-RC[dA]P[dF]RWC-NH2; disulfide 2-8)	56
CC(=O)N[C@@H](CCCNC(=N)N)C(=O)N[C@H]1CCSSC(C)(C)[C@@H](C(N)=O)NC(=O)[C@H](Cc2c[nH]c3ccccc23)NC(=O)[C@H](CCCNC(=N)N)NC(=O)[C@@H](Cc2ccccc2)NC(=O)[C@@H](C)NC1=O [Compound 17] (Ac-R[hCys][dA][dF]RW[Pen]-NH2; disulfide 2-7)	13.7
CC(=O)N[C@@H](CCCNC(=N)N)C(=O)N[C@H]1CSSC[C@@H](C(N)=O)NC(=O)[C@H](Cc2c[nH]c3ccccc23)NC(=O)[C@H](CCCNC(=N)N)NC(=O)[C@@H](Cc2ccccc2)NC(=O)[C@H](Cc2c[nH]c3ccccc23)NC(=O)[C@@H](C)NC1=O [Compound 7] (Ac-RC[dA]W[dF]RWC-NH2; disulfide 2-8)	34
CC(=O)N[C@@H](CCCNC(=N)N)C(=O)N[C@H]1CSSC[C@@H](C(N)=O)NC(=O)[C@H](Cc2c[nH]c3ccccc23)NC(=O)[C@H](CCCNC(=N)N)NC(=O)[C@@H](Cc2ccccc2)NC(=O)[C@H](Cc2ccc(O)cc2)NC(=O)[C@@H](C)NC1=O [Compound 11] (Ac-RC[dA]Y[dF]RWC-NH2; disulfide 2-8)	45.1
CC(=O)N[C@@H](CCCNC(=N)N)C(=O)N[C@H]1CSSC[C@@H](C(N)=O)NC(=O)[C@H](Cc2c[nH]c3ccccc23)NC(=O)[C@H](CCCNC(=N)N)NC(=O)[C@@H](Cc2ccccc2)NC(=O)[C@H](CC(N)=O)NC(=O)[C@@H](C)NC1=O [Compound 9] (Ac-RC[dA]N[dF]RWC-NH2; disulfide 2-8)	3

(P) CC(=O)N[C@@H](CCCNC(=N)N)C(=O)N[C@H]1CSSC[C@@H](C(N)=O)NC(=O)[C@H](Cc2c[nH]c3ccccc23)NC(=O)[C@H](CCCNC(=N)N)NC(=O)[C@@H](Cc2ccccc2)NC(=O)[C@H](Cc2c[nH]cn2)NC(=O)[C@@H](C(C)(C)C)NC1=O
(Q) CC[C@@H](C)[C@H]1NC(=O)[C@@H](NC(=O)[C@H](CCCNC(=N)N)NC(C)=O)CSSC[C@@H](C(N)=O)NC(=O)[C@H](Cc2c[nH]c3ccccc23)NC(=O)[C@H](CCCNC(=N)N)NC(=O)[C@@H](Cc2ccccc2)NC(=O)[C@H](Cc2c[nH]cn2)NC1=O
-- ask Just tell me: smaller EC50 value, P or Q ? Reply with the label of the item you choose.
-- reply P
